# protocol_description: amyloid nucleation score (Sup35N fusion, yeast selection) (log enrichment); library NNK2; higher = more nucleation; inactive = no reads after selection;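 also: zero at mode of non-aggregating sequences after 7 days selection at 30°C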
measured_attribute: amyloid nucleation score
// return a plain number; no unit text

Incoming: Report amyloid nucleation score for `SPLVLGFSRK` please.
Outgoing: -1.02

Incoming: Please report the recorded amyloid nucleation score for `CWRNTDLKGLGNWPSLLASV` .
Outgoing: 0.589

Incoming: Which value of amyloid nucleation score has been reported for `RCLSYFGLKLLRVSRLFIDL` in the records?
Outgoing: 0.034

---

# protocol_description: amyloid nucleation score (Sup35N fusion, yeast selection) (log enrichment); library NNK1; higher = more nucleation; inactive = no reads after selection
measured_attribute: amyloid nucleation score

IWIDKRWLMMPKLVRKVPNV : inactive
QNSENMFDINVLTWGCHMAM : inactive
QVWWDVNEPPDLTPQGSRWG : inactive

---

# protocol_description: amyloid nucleation score (Sup35N fusion, yeast selection) (log enrichment); library NNK2; higher = more nucleation; inactive = no reads after selection
measured_attribute: amyloid nucleation score

FSMPLLALAFLL : inactive
FLVIVTVNLMYESQRMGSPV : inactive
YGFASFSLYDYYLLVCSMFI : inactive
VHLNTFATFMGWLTDSWLGV : inactive

Now for another entry.
Incoming: Name the recorded amyloid nucleation score for `CYVNWGCNGEISGIVFDSMK` .
Outgoing: inactive

---

# protocol_description: amyloid nucleation score (Sup35N fusion, yeast selection) (log enrichment); library NNK2; higher = more nucleation; inactive = no reads after selection
measured_attribute: amyloid nucleation score

KYFIASLDQFSYISVHNEVV : inactive
ASKSYIITSSCRASLTVSSL : inactive
FNTCGSHRSGRRFL : inactive

---

# protocol_description: amyloid nucleation score (Sup35N fusion, yeast selection) (log enrichment); library NNK3; higher = more nucleation; inactive = no reads after selection
measured_attribute: amyloid nucleation score

Here are 10 substances together with their reported answers.
KRDTSWLPVCNSGLSQCRKR : inactive
KRASMPVPGSSWLHQFKE : inactive
VEPDRERKENVC : inactive
VGQLFTSSSSVVSSGCMIVD : inactive
LPVPGTPLKKAVGGIIRGCG : inactive
RYFAMGFRNSCYL : 2.02
GLSRCSPWKASSDDRRRLSD : inactive
HYDFWIISYLPRSPGNMAID : inactive
PTRFMTMKETKPVCWWLGNR : -0.114
AGRNMSLCNLHLILLCTSKC : inactive

Incoming: Looking for the measured amyloid nucleation score of `QLMYRE` , can you help?
Outgoing: inactive

Incoming: GET /values?readout=amyloid nucleation score&item= `FVMRYRVVYSDRCFELGWHA`
Outgoing: -0.567

Incoming: amyloid nucleation score for `VFYSLMILSLLNSRRDGLHQ` ?
Outgoing: 0.429

---

# protocol_description: amyloid nucleation score (Sup35N fusion, yeast selection) (log enrichment); library NNK3; higher = more nucleation; inactive = no reads after selection
measured_attribute: amyloid nucleation score

Below, 4 substances whose answers are already recorded.
TICPTFPVGGMNISNGSYTM : inactive
DPYSDVQDKDTSDAGYASRV : inactive
FATFYVQQGFGNFAPKAYS : inactive
LWYTSSSRGWPISLSSMW : inactive

Incoming: Given the entry `GTITPRYRYVIEVSSMKRYW` , report its measured amyloid nucleation score.
Outgoing: inactive

Incoming: Which amyloid nucleation score reading was recorded for the substance `RYGDWLHHS` ?
Outgoing: inactive

Incoming: I would be grateful if you could share the reported amyloid nucleation score for `WSVSTQFPCFMSGSIGYNMS` .
Outgoing: inactive

Incoming: Sample `RLWYGTYWFT` — what was its amyloid nucleation score?
Outgoing: inactive

Incoming: I am curious: what amyloid nucleation score value has been reported for `TNNQNSDRFGVTVPSLTFVR` ?
Outgoing: inactive

Incoming: For `SLIFFL` , what is its reported amyloid nucleation score?
Outgoing: 1.35

---

# protocol_description: amyloid nucleation score (Sup35N fusion, yeast selection) (log enrichment); library NNK2; higher = more nucleation; inactive = no reads after selection
Please go through the items and note down their amyloid nucleation score.
// no unit string in output, number only

Incoming: Which value of amyloid nucleation score has been reported for `HLVVSMVRTLVCHFCRFDVS` in the records?
Outgoing: 1.28

Incoming: Sample `SFRTLVP` — what was its amyloid nucleation score?
Outgoing: -0.905

Incoming: Which amyloid nucleation score is reported for this substance? `GREPESF`
Outgoing: 1.72

Incoming: Which amyloid nucleation score value is on record for `MSNRVCCNYVGSHVRYCVSK` ?
Outgoing: 4.91

Incoming: For `DLITLMKSAIPQPNMRLNSL` , what is its reported amyloid nucleation score?
Outgoing: 0.105

Incoming: Item `VSKSFWGMGWSLRYSGFSRV` has what recorded amyloid nucleation score?
Outgoing: -0.262

Incoming: Returns the measured amyloid nucleation score for the input substance. Input: `NIRSYPVNYKHHFT`
Outgoing: 0.19

Incoming: GET /values?readout=amyloid nucleation score&item= `WERMFRPHIFVLFSSGQLSS`
Outgoing: 5.01

Incoming: Would you mind telling me what amyloid nucleation score value was observed for `IQVASRRIIM` ?
Outgoing: 0.063

Incoming: Query: amyloid nucleation score; subject: `NSSSYVDFGTICMDSIWMS`
Outgoing: 0.041

Incoming: So what does the record say about amyloid nucleation score for `MTIVCRWR` ?
Outgoing: 3.04

Incoming: Can you share its amyloid nucleation score? I mean this substance: `IWGPVLYIMSGYSSVVTRF`
Outgoing: 6.56

Incoming: So what does the record say about amyloid nucleation score for `IYVVMFSKRLNSNFW` ?
Outgoing: -1.62

Incoming: Would you mind telling me what amyloid nucleation score value was observed for `VGICFDNRMVTWHLSDRQSP` ?
Outgoing: 3.58

Incoming: amyloid nucleation score lookup needed for `ILWWFRVTAHAWEDETGWMW` , thanks.
Outgoing: 0.098

Incoming: What does the data say about its amyloid nucleation score? Entry: `TFKMSGINPTD`
Outgoing: -1.19

Incoming: Reported amyloid nucleation score, substance `VICVLSYADCSKLGWGHSLT` : ____
Outgoing: 8.87

Incoming: Fill in: amyloid nucleation score of `GDMVIDLSKYITYSSL` is ___
Outgoing: 1.37

Incoming: Return reported amyloid nucleation score; argument: `RQMMWRYEE`
Outgoing: 0.3

Incoming: # amyloid nucleation score lookup, item `MLRNWLCRY`
Outgoing: 2.02

Incoming: Item `SMCGSNAFLDTDRDVRHDDF` has what recorded amyloid nucleation score?
Outgoing: -1.05

Incoming: amyloid nucleation score for `SIFKSIWDYLIYRSLVSHPH` ?
Outgoing: -0.305

Incoming: Recorded amyloid nucleation score for `CAGRFRCFLMSCIDCKLGVL` , please?
Outgoing: -0.763

Incoming: Report amyloid nucleation score for `CMKAYKIRLLVLEDINSSFS` please.
Outgoing: -1.85

Incoming: Using the record for `KICSYPR` , report its amyloid nucleation score.
Outgoing: 2.46

Incoming: What value of amyloid nucleation score has been reported for the following substance? `TGRHKVTDLRIWILWSYTGA`
Outgoing: -0.398

Incoming: Quick check: amyloid nucleation score of `TFMAIRSLNSSASGWATGF` ?
Outgoing: 3.01

Incoming: Record request: amyloid nucleation score value, item `MYIGVL`
Outgoing: -0.065

Incoming: Item `HVFFHFRDVTSGL` has what recorded amyloid nucleation score?
Outgoing: 4.64

---

# protocol_description: amyloid nucleation score (Sup35N fusion, yeast selection) (log enrichment); library NNK1; higher = more nucleation; inactive = no reads after selection
Please go through the items and note down their amyloid nucleation score.
The response must contain the number and no unit.

Incoming: Which amyloid nucleation score is reported for this substance? `LLPYSLMLRDLGFLKHYLGV`
Outgoing: -0.264

Incoming: Need amyloid nucleation score, item `VTMVRYCALIQSYGGDGELV`
Outgoing: 0.26

Incoming: Which value of amyloid nucleation score has been reported for `LEGVFAAALSNKMIRYIRDV` in the records?
Outgoing: 1.19

Incoming: Quick one: amyloid nucleation score for `KYRASYRNHRDMGDSAVYGY` ?
Outgoing: 0.044

Incoming: What value of measured amyloid nucleation score is listed for `SKKSMYFLVRNWSQNLTRAG` ?
Outgoing: 2.21

Incoming: Find the recorded amyloid nucleation score belonging to `EENLSSPWMPMVPIDTINWF` and report it.
Outgoing: 1.67

Incoming: Which measured amyloid nucleation score value corresponds to `YPLSLRYQCI` ?
Outgoing: 0.2

Incoming: Recorded amyloid nucleation score of `AMGSDDE` , please.
Outgoing: -0.338

Incoming: Fill blank: measured amyloid nucleation score of the substance `RFLTGCICAQSLRQLTS` is ____.
Outgoing: -0.075

Incoming: Can you share its amyloid nucleation score? I mean this substance: `NSSMVG`
Outgoing: -1.16

Incoming: So what's the measured amyloid nucleation score for this one? `YIKWSMIRFT`
Outgoing: -0.66

---

# protocol_description: amyloid nucleation score (Sup35N fusion, yeast selection) (log enrichment); library NNK1; higher = more nucleation; inactive = no reads after selection
measured_attribute: amyloid nucleation score

Below, each entry is followed by its recorded amyloid nucleation score result.
WCSLRSDW : inactive
NSFKCFNDRNEVALMITHRE : -0.526
CPNIEKPSLLST : -2.01
SLRDACFGVNI : -0.091
TGYGVAVGPFVGGDF : -0.548
VSVQMAGIF : -0.863

Here's the next entry for you.
Incoming: For the substance `TLMNHGRESLGWFD` , what amyloid nucleation score is on record?
Outgoing: -0.828

These measurements were taken from the supplement of paper PMC12042874.
